System: MCF10A
Assay: one-nucleolus phenotype percent effect (relative to siNT 0% and siNOL11 100%); higher = more cells with one nucleolus (ribosome biogenesis inhibition)
Details: 20 nM; 72 h
measuredAttribute: one-nucleolus phenotype percent effect (%)
One number for each entry, in %.

Hi there! I need one-nucleolus phenotype percent effect for each item below, if you can.
1. CCUGCAACUUUGCCUGAUCAGA [hsa-miR-4772-3p]
2. UGUGACUUCUCCCCUGCCACAG [hsa-miR-6820-3p]

Output:
-15.1
22.3

Hi there! I need one-nucleolus phenotype percent effect for each item below, if you can.
1. UAAAACUGCAGUUAUUUUUGC [hsa-miR-548ar-3p]
2. AGAGUUAACUCAAAAUGGACUA [hsa-miR-4424]
3. CUGUAUGCCCUCACCGCUCA [hsa-miR-675-3p]
4. AGAGUCUUGUGAUGUCUUGC [hsa-miR-924]
5. UGGGCAGGGGCUUAUUGUAGGAG [hsa-miR-6721-5p]

Output:
1. -24.2
2. -9.95
3. 0.624
4. 24.7
5. 19.5

---

Test system: MCF10A
Assay: 5+ nucleoli phenotype percent effect (relative to siNT 0% and siKIF11 100%); higher = more cells with five or more nucleoli
Details: 20 nM; 72 h
measuredAttribute: 5+ nucleoli phenotype percent effect (%)
One number for each entry, in %.

                             sequenceinput  studysystem  measurednumber
0         AAGACUGAGAGGAGGGA [hsa-miR-4499]       MCF10A            3.14
1  UGGAUGUGGAAGGAGUUAUCU [hsa-miR-4764-5p]       MCF10A           -8.02

Hi there! I need 5+ nucleoli phenotype percent effect for each item below, if you can.
1. ACUGUAAACGCUUUCUGAUG [hsa-miR-3607-3p]
2. GCAGCAUUCAUGUCCC [hsa-miR-4310]
3. AACAAUAUCCUGGUGCUGAGUG [hsa-miR-338-5p]

Output:
1. 42.2
2. 17.2
3. -1.58

Hi there! I need 5+ nucleoli phenotype percent effect for each item below, if you can.
1. CAGGCACGGGAGCUCAGGUGAG [hsa-miR-3622a-5p]
2. UAAAGUGGCAGAGUAUAGACAC [hsa-miR-4796-3p]
3. UGAGGGGUUUGGAAUGGGAUGG [hsa-miR-5194]

Output:
-21.7
-8.21
21

Hi there! I need 5+ nucleoli phenotype percent effect for each item below, if you can.
1. AGAGGACCCGUAGCUGCUAGAAGG [hsa-miR-4751]
2. UAAAGAACUCUUAAAACCCAAU [hsa-miR-3133]
3. UGAUGGAUAAAAGACUACAUAUU [hsa-miR-3134]
4. GAGACUGGGGUGGGGCC [hsa-miR-4463]
5. GAAAACGACAAUGACUUUUGCA [hsa-miR-548ad]
6. UUAAGACUUGCAGUGAUGUUU [hsa-miR-499a-5p]

Output:
1. 41.7
2. 48.7
3. -19.7
4. -7.37
5. 40.5
6. -1.56

Hi there! I need 5+ nucleoli phenotype percent effect for each item below, if you can.
1. UGAGGGAGUGGGUGGGAGG [hsa-miR-6127]
2. UGCCUCCUUGGUCUCCGGCAG [hsa-miR-6791-3p]
3. UGUAACAGCAACUCCAUGUGGA [hsa-miR-194-5p]

Output:
[-15.1, -9.62, -7.22]

Hi there! I need 5+ nucleoli phenotype percent effect for each item below, if you can.
1. AUACCCAUAGCUUAGCUCCCA [hsa-miR-5591-3p]
2. UGAAACAUACACGGGAAACCUC [hsa-miR-494]
3. AAAACUGUAAUUACUUUUGUAC [hsa-miR-548g-3p]
4. AAGUGCUGUCAUAGCUGAGGUC [hsa-miR-512-3p]
5. CAGCAGUGCGCAGGGCUG [hsa-miR-4519]
6. ACUCGGCUGCGGUGGACAAGU [hsa-miR-4638-5p]

Output:
-19.5
-37.3
49.3
45.1
8.89
-4.89

Hi there! I need 5+ nucleoli phenotype percent effect for each item below, if you can.
1. UGGGCCAUGCAUUUCUAGAACU [hsa-miR-6508-3p]
2. UGGGUAGAGAAGGAGCUCAGAGGA [hsa-miR-3132]
3. GGAGAUGGAGGUUGCAGUG [hsa-miR-1273f]
4. UGGCGGCGGUAGUUAUGGGCUU [hsa-miR-4467]
5. AAGGAACCAGAAAAUGAGAAGU [hsa-miR-3914]
6. UUUGAGGCUACAGUGAGAUGUG [hsa-miR-1304-5p]

Output:
-35
62.9
1.46
-36
57.2
15.4

Hi there! I need 5+ nucleoli phenotype percent effect for each item below, if you can.
1. AGGAGAGUGGAUUCCAGGUGGU [hsa-miR-5192]
2. UUCCCUUUGUCAUCCUUCGCCU [hsa-miR-211-5p]
3. CAAAUUCGUAUCUAGGGGAAUA [hsa-miR-10a-3p]
4. UCUCAGCUGCUGCCCUCUCCAG [hsa-miR-6787-3p]
5. UGUAAACAUCCUUGACUGGAAG [hsa-miR-30e-5p]

Output:
[20.1, 49.7, 38.1, 41.8, 36.3]

Hi there! I need 5+ nucleoli phenotype percent effect for each item below, if you can.
1. GUGCCACCUUAACUGCAGCCAAU [hsa-miR-4715-3p]
2. UUUGGGACUGAUCUUGAUGUCU [hsa-miR-3913-5p]
3. ACCACUGCACUCCAGCCUGAG [hsa-miR-1273g-3p]
4. AGGGAGGGUGUGGUAUGGAUGU [hsa-miR-6883-5p]
5. GCUGGUUUCAUAUGGUGGUUUAGA [hsa-miR-29b-1-5p]
6. AGGGAGGGACGGGGGCUGUGC [hsa-miR-149-3p]
7. UUCACCCCUCUCACCUAAGCAG [hsa-miR-6802-3p]
8. AGAAGGCCUUUCCAUCUCUGU [hsa-miR-4493]

Output:
1. -23.5
2. 132
3. -16.5
4. -4.87
5. 38.2
6. -16.6
7. 15.5
8. -36.6

Entry source: the supplement of paper PMC10899765
